- TESTED ON: Sphingosine 1-phosphate receptor 2 (Homo sapiens)
- EXPERIMENTAL PROTOCOL: human S1P2 receptor antagonists, primary screen, cell-based (AID 736);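 note: CRE beta-lactamase reporter cells expressing human S1P2 stimulated with S1P; 0% = agonist at EC80 alone and 100% = agonist plus reference antagonist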
- ASSAY CONTEXT: cell-based S1P2 antagonist assay, at 5 µM, stronger effect = higher value
The campaign covered roughly 97,000 compounds. About 210 (0.22%) were called active. The sample holds actives, similar compounds and a random draw of the others, so the mix is not that of the screen.
ATTRIBUTE MEASURED: inhibition (%)
Numbers only here, please. The scale is %.

Here's what some known entries look like.
| COMPOUND | RESULT UNIT | inhibition |
| --- | --- | --- |
| c1cnc(Nc2nc(-c3ccc4ccccc4c3)cs2)nc1 | % | 10.4 |
| O=C(Nc1ccn(Cc2ccccc2F)n1)c1ccc(COc2ccc(Cl)cc2Cl)o1 | % | 6.95 |
| Cc1ccc(N(Cc2ccc(C(=O)Nc3ccccc3C(=O)NCc3ccco3)cc2)S(C)(=O)=O)cc1C | % | 29.7 |
| Cc1ccc(C(=O)/C=C/c2c(C)nn(-c3ccccc3)c2Cl)cc1 | % | -1.65 |
| N=c1oc2ccccc2cc1C(=O)N/N=C/c1ccccc1 | % | 10.7 |
| Cn1nc(C(F)(F)F)c2cc(NC(=O)OCC(C)(C)C)sc21 | % | -6.24 |
| CCCCCCCC(=O)NC(Nc1ccccc1OC)C(Cl)(Cl)Cl (centres undefined) | % | -5.42 |
| COc1cccc(/C=N\Nc2nncc(-c3ccccc3)n2)c1 | % | 20.6 |
| Cc1ccc(CN(C(=O)c2sc3ccccc3c2Cl)C2CCS(=O)(=O)C2)cc1 (centres undefined) | % | 15.7 |
| Cc1cc([N+](=O)[O-])c(N2CCC[C@@H]2C(=O)O)c([N+](=O)[O-])c1 | % | 16.9 |

q: Answer with reported inhibition of Cc1c(C=O)c2ccccn2c1C(=O)c1ccncc1
a: -13

q: Answer with reported inhibition of O=C(CSc1nnnn1-c1ccccc1)NCc1ccco1
a: -4.03

q: Answer with reported inhibition of O=C(Nc1cccc(-c2nc3ncccc3o2)c1)c1ccco1
a: -19.4

q: Answer with reported inhibition of O=C(NCCCN1CCCCC1)c1ccc2c(c1)NC(=O)C(N1CCOCC1)S2 (centres undefined)
a: 14.6

q: Answer with reported inhibition of CC(C)(C)c1ccc(C(=O)CSc2ncn[nH]2)cc1
a: 19.4

q: Answer with reported inhibition of O=C(/C=C/Sc1ncn[nH]1)c1ccc(Cl)cc1
a: 59.7

q: Answer with reported inhibition of CCN(CC)S(=O)(=O)c1ccc(N2CCOCC2)c(C(=O)O)c1
a: 0.01

q: Answer with reported inhibition of N=c1c2c(-c3ccccc3)c(-c3ccccc3)oc2ncn1Cc1ccco1
a: 2.42

q: Answer with reported inhibition of CCCCNC(=O)C1CCCNC1=O (centres undefined)
a: 0.22
